Experimental Target: T1, ARHGEF11, O15085
T1 sequence (O15085 42-136, limits assumed, looked up): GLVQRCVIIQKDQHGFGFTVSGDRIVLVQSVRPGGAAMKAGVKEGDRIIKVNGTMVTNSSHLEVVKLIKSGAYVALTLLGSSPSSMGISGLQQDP
Procedure Text: holdup assay
Set-up: key: below the threshold = too weak to quantify, mostly under pKd 3.1 to 4
Setup Conditions: plain residues with an end cap or a label only (N-terminal biotin on a linker: ahx)
Reported Endpoint: pKd

[[record]]
binder = "QNTDDVQTSF [ACE2, Q9BYF1]"
result = "below the threshold"

[[record]]
binder = "EKQAKGDTEF [CACYBP, Q9HB71]"
result = "below the threshold"

[[record]]
binder = "QPRTWLQSPV [RTKN, Q9BST9]"
result = "below the threshold"

[[record]]
binder = "APSRKLNTEI [TIAM1, Q13009]"
result = "below the threshold"

[[record]]
binder = "HTHSYIETHV [CNKSR2, Q8WXI2]"
result = "below the threshold"

[[record]]
binder = "TQKFRASTAL [FRMPD1, Q5SYB0]"
result = 4.38

[[record]]
binder = "TEAKLTETNA [MYO18A, Q92614]"
result = "below the threshold"

[[record]]
binder = "TESNLQTSSC [CGN, Q9P2M7]"
result = "below the threshold"

[[record]]
binder = "QDEKVKESYV [ABCA1, O95477]"
result = 4.3

